All values here come from ChEMBL document CHEMBL1909046.

Biological target: C-X-C chemokine receptor type 2 (Homo sapiens); also: in other assays of this panel Not Active means under 50% inhibition at 10 µM
Sequence (P25025 whole entry): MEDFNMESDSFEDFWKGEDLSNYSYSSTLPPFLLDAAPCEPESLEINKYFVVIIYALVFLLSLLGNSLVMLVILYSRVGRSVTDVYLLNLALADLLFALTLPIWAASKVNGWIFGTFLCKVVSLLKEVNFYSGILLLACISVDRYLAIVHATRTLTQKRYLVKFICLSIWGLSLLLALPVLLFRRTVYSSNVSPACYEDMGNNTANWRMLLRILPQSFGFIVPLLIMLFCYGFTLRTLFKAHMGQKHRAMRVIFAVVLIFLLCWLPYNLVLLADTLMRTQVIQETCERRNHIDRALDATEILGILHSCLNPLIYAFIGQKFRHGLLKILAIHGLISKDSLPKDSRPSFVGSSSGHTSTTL
Assay type: cell membranes, Membrane
Conditions: cho-k1
parameter: IC50

molecule: COc1cc2nc(N3CCN(C(=O)C4CCCO4)CC3)nc(N)c2cc1OC (stereo not drawn) [TERAZOSIN]
assay.value: Not Active
--
molecule: CO[C@@H]1[C@@H](OC)[C@H](C)[C@@](O)(CC(=O)O)O[C@H]1[C@H](C)[C@H]1O[C@@]2(CC[C@@](C)([C@H]3CC[C@@](C)([C@@H]4O[C@@H]([C@H]5O[C@](C)(O)[C@H](C)C[C@@H]5C)C[C@@H]4O[C@@H]4C[C@H](OC)[C@@H](OC)[C@H](C)O4)O3)O2)C[C@H](O)[C@H]1C [MADURAMICIN ACID]
assay.value: Not Active
--
molecule: CN1[C@@H]2CC[C@H]1C[C@@H](OC(=O)C(CO)c1ccccc1)C2 (stereo partly drawn) [ATROPINE]
assay.value: Not Active
--
molecule: N=C(N)NC(=O)Cc1c(Cl)cccc1Cl [GUANFACINE]
assay.value: Not Active
--
molecule: CC(C)Oc1ccc2c(=O)c(-c3ccccc3)coc2c1 [IPRIFLAVONE]
assay.value: Not Active

Per the reported C-X-C chemokine receptor type 2 (Homo sapiens) data, CN/C(=N\CCSCc1nc[nH]c1C)NC#N [CIMETIDINE] has IC50 of Not Active

Entry COc1ccc2[nH]cc(CCNC(C)=O)c2c1 [MELATONIN] under C-X-C chemokine receptor type 2 (Homo sapiens) had IC50 of Not Active

Recorded IC50 for CCn1cc(C(=O)O)c(=O)c2cnc(N3CCCC3)nc21 [PIROMIDIC ACID] on C-X-C chemokine receptor type 2 (Homo sapiens) was Not Active

Entry C[C@H]1C[C@@H]2[C@H]([C@@H](O)C[C@@]3(C)[C@H]2CC[C@]3(O)C(=O)CO)[C@@]2(C)C=CC(=O)C=C12 [METHYLPREDNISOLONE] : IC50 on C-X-C chemokine receptor type 2 (Homo sapiens) = Not Active

Record for Cc1c(C)c2c(c(C)c1O)CCC(C)(CN1CCN(c3cc(N4CCCC4)nc(N4CCCC4)n3)CC1)O2 (stereo not drawn) under target or system C-X-C chemokine receptor type 2 (Homo sapiens): IC50 reported as Not Active
